- TARGET_OR_TEST_SYSTEM: glycine site of the NMDA receptor complex (Rattus norvegicus, UniProt P35439)
- Construct: thawed rat cerebral cortical membrane homogenate
- EXPERIMENT_DESCRIPTION: [3H]-glycine binding (Test 1)
- CONDITIONS_USED: displacement of 50% of specific [3H]-glycine binding; rat cerebral cortical membrane homogenate, pH 7.1, 0° C., 10 min
Labelling: IC50 reported below 300 nM becomes t; at or above becomes f.

* O=c1[nH]c2sc3ccc(F)cc3c2[nH]c1=O | t
* O=c1[nH]c2sc3cc(Br)c(F)cc3c2[nH]c1=O | f
* O=c1[nH]c2sc3c(F)cccc3c2[nH]c1=O | t
* O=c1[nH]c2sc3ccc(Br)cc3c2[nH]c1=O | t
* COc1ccc2c(c1)sc1[nH]c(=O)c(=O)[nH]c12 | f
* O=C(O)c1cc(O)c2ccc(Cl)cc2n1 [Example 7-Cl-Kyn, 7-chlorokynurenic acid, reference compound] | f
* NC1CCN(O)C1=O (stereo not shown) [HA-966, 3-amino-1-hydroxy-2-pyrrolidone, reference compound] | f
* O=c1[nH]c2sc3ccccc3c2[nH]c1=O | t
* O=c1[nH]c2sc3cc(Cl)ccc3c2[nH]c1=O | f
* O=c1[nH]c2sc3ccc(I)cc3c2[nH]c1=O | f

----------
- TARGET_OR_TEST_SYSTEM: glycine site of the NMDA receptor complex (Rattus norvegicus)
- Construct: thawed rat cerebral cortical membrane homogenate
- EXPERIMENT_DESCRIPTION: Antagonism of glycine enhanced [3H]-MK-801 binding (Test 2)
- CONDITIONS_USED: dissociation constant of receptor-antagonist complex, Schild analysis; rat cerebral membrane homogenate, pH 7.40, 23° C., 60 min, 1 nM [3H]-MK-801, 300 nM glutamate
pKi: −log10 of the molar value.
Examples of compounds with documented pKi follow.
READOUT_NAME: pKi

* O=C(O)c1cc(O)c2ccc(Cl)cc2n1 [Example 7-Cl-Kyn, 7-chlorokynurenic acid, reference compound] | 6.15
* O=c1[nH]c2sc3ccc(Cl)cc3c2[nH]c1=O | 7.40
* O=c1[nH]c2sc3ccccc3c2[nH]c1=O | 6.68
* O=c1[nH]c2sc3ccc(F)cc3c2[nH]c1=O | 8.10
* O=c1[nH]c2sc3ccc(Br)cc3c2[nH]c1=O | 7.74
* O=c1[nH]c2sc3c(Cl)cccc3c2[nH]c1=O | 7.39
* NC1CCN(O)C1=O (stereo not shown) [HA-966, 3-amino-1-hydroxy-2-pyrrolidone, reference compound] | 4.80
